# TARGET_ENTITY: Cytochrome P450 2C19 (Homo sapiens)
# ASSAY_EXPLANATION: Cytochrome panel assay with activity outcomes
# STUDY_CONDITIONS: recombinant CYP, pro-luciferin dealkylation, luminescence, p450-cyp2c19; series mostly up to 57.1 µM
Hit rate of the full screen: of about 16,000 compounds, about 5,800 (36%) were called active. About 23% were inconclusive and are not listed. Calls come from the whole dose curve; as a rule, active = well fitted curve in the direction sought with a large enough effect; inconclusive = small, poorly fitted or top-dose-only effect, or effect the other way; inactive = no such curve, though single readings can be large or run the other way. Some of the results follow.
Please reply with one of these outcomes: active, inactive

Worked cases, answers included:
[[record]]
molecule = "Nc1nc2c(ncn2COC(CO)CO)c(=O)[nH]1"
discrete_label = "inactive"

[[record]]
molecule = "COC(=O)c1sc2ccccc2c1-n1cccc1C(=O)C(=O)Nc1ccc(Cl)cc1"
discrete_label = "active"

[[record]]
molecule = "COc1ccc(-n2c(=O)c(-c3ccccc3)nc3cnc(N4CCOCC4)nc32)cc1"
discrete_label = "inactive"


Assay outcome for COc1ccc(CNc2ccnc(-c3cccnc3)n2)c(OC)c1 : what was it?
active

Just curious, what result did COc1cccc(-c2nccc(NCc3ccccc3OC)n2)c1 get here?
active

Field: outcome | Entry: O=[N+]([O-])c1cccc(/C=N/Nc2cc(Cl)nc(-c3ccccc3)n2)c1
active

Would you mind telling me which call this test gave CCCCN1C(=O)C(NC(=O)C2CC2)(C(F)(F)F)C2=C1CC(C)(C)CC2=O (stereo not drawn) ?
active

Query: recorded result category for CCC(=O)NNC(=O)CCC(=O)Nc1ccccc1 in this test
inactive
